Test system: L. infantum promastigotes
Experiment: Antileishmanial activity against L. infantum promastigotes (MTT assay)
Conditions: ratio between IC50 of miltefosine and that of each compound, L. infantum promastigotes
Listed below: Ratio IC50 Miltef./IC50 Compd. (L. infantum) values for each entry.
Enter a number only.

These solved cases illustrate the format of a correct answer.
[
  {
    "compound": "Cc1ccc(NCC2CCCN3CCCCC23)c2c(=O)c3ccccc3oc12 (centres unmarked)",
    "measured": 3.8
  },
  {
    "compound": "C[N+]12CCCC[C@@H]1[C@H](C=C1c3ccccc3CCc3ccccc31)CCC2.[I-] (some centres unmarked)",
    "measured": 3.58
  },
  {
    "compound": "COc1ccc2sc3c([N+](=O)[O-])ccc(NCCCC4CCCN5CCCCC45)c3c(=O)c2c1 (centres unmarked)",
    "measured": 3.95
  },
  {
    "compound": "Cc1ccc(NC[C@@H]2CCCN3CCCC[C@H]23)c2c(=O)c3ccccc3sc12",
    "measured": 8.1
  },
  {
    "compound": "Cc1ccc(NCCCC2CCCN3CCCCC23)c2c(=O)c3ccccc3sc12 (centres unmarked)",
    "measured": 1.8
  }
]

State, in one line, measured Ratio IC50 Miltef./IC50 Compd. (L. infantum) of COc1ccc2sc3c(C)ccc(NCC4CCCN5CCCCC45)c3c(=O)c2c1 (centres unmarked)
3.5

Answer with reported Ratio IC50 Miltef./IC50 Compd. (L. infantum) of Nc1ccc(NCCCC2CCCN3CCCCC23)c2c(=O)c3ccccc3sc12 (centres unmarked)
7.4

Answer with the recorded Ratio IC50 Miltef./IC50 Compd. (L. infantum) of "CCN(CC)CCNc1ccc(C)c2sc3ccccc3c(=O)c12" only.
8.9

Give Ratio IC50 Miltef./IC50 Compd. (L. infantum) for the following compound: "C(=C1c2ccccc2CCc2ccccc21)[C@@H]1CCCN2CCCC[C@H]12"
1.24

Consider the compound Nc1ccc(NCC2CCCN3CCCCC23)c2c(=O)c3ccccc3sc12 (centres unmarked) and give its recorded Ratio IC50 Miltef./IC50 Compd. (L. infantum).
6.0

Assign Ratio IC50 Miltef./IC50 Compd. (L. infantum) to the following record: Cc1ccc(NCCC2CCCN3CCCCC23)c2c(=O)c3ccccc3sc12 (centres unmarked)
2.95

Give the value of Ratio IC50 Miltef./IC50 Compd. (L. infantum) reported for the following: O=c1c2ccccc2sc2c([N+](=O)[O-])ccc(NCCCC3CCCN4CCCCC34)c12 (centres unmarked)
1.4

Identify Ratio IC50 Miltef./IC50 Compd. (L. infantum) associated with the compound "C(=C1c2ccccc2-c2ccccc21)[C@@H]1CCCN2CCCC[C@H]12"
7.2
